Please respond with reported pest or weed control at 500 ppm for every item in the list.
Test system: Alternaria solani
Assay: Example M: in vivo test on Alternaria solani (leaf blotch disease/tomato/protective)
Conditions: 168 h, tomato, protective, 500 ppm active substance, assessed 7 days after inoculation, read-out: % Wirkungsgrad (activity level)
Numbers only, in %.

Worked examples follow.
CCn1cc(-c2ccnc(NC(=O)[C@@H]3C[C@H]3c3ccccc3)c2)c(-c2ccc(F)cc2)n1
95
Cc1c(-c2ccncc2)c(-c2ccc(F)cc2)nn1CC(F)F
95

// each listed compound needs a value for pest or weed control at 500 ppm
1. CCC(=O)Nc1cc(-c2cn(C3CCN(C(=O)OC(C)(C)C)CC3)nc2-c2ccc(F)cc2)ccn1
2. CCC(=O)Nc1cc(-c2cn(C(C)c3ccccc3F)nc2-c2ccc(F)cc2)ccn1 (stereo not shown)
3. O=C(Nc1cc(-c2cn(OC3CCCC3)nc2-c2ccc(F)cc2)ccn1)C1CC1
4. CC(C)C(=O)Nc1cc(-c2cn(CC3OCCO3)nc2-c2ccc(F)cc2)ccn1
5. CCC(C)n1cc(-c2ccnc(NC(=O)C(C)C)c2)c(-c2ccc(F)cc2)n1 (stereo not shown)

1: 93; 2: 94; 3: 89; 4: 95; 5: 94

For each entry beneath this line, provide reported pest or weed control at 500 ppm.
1. CC(C)Cn1cc(-c2ccncc2-c2cccc(F)c2)c(-c2ccc(F)cc2)n1
2. CCn1cc(-c2ccnc(NC(=O)C(N)=O)c2)c(-c2ccc(F)cc2)n1

1: 95; 2: 95

Record pest or weed control at 500 ppm for all entries; do not skip any.
1. Cc1cc(C(=O)Cn2cc(-c3ccncc3)c(-c3ccc(F)cc3)n2)nn1C
2. CC(C)Cn1cc(-c2ccnc(NC(=O)C(C)C)n2)c(-c2ccc(F)cc2)n1
3. CC(c1ccccc1F)n1cc(-c2ccnc(NC(=O)CC3CC3)c2)c(-c2ccc(F)cc2)n1 (stereo not shown)
4. CCC(C)n1cc(-c2ccnc(NC(=O)CC3CC3)c2)c(-c2ccc(F)cc2)n1 (stereo not shown)

94
95
94
94

Dear colleague, could you send me pest or weed control at 500 ppm for each of the items below? Thanks.
1. CC(C)n1cc(-c2ccnc(NC(=O)c3ccsc3)c2)c(-c2ccc(F)cc2)n1
2. O=C(Nc1cc(-c2cn(CC(F)F)nc2-c2ccc(F)cc2)ccn1)c1ccsc1
3. CSCCn1cc(-c2ccnc(NC(=O)C(C)C)c2)c(-c2ccc(F)cc2)n1
4. CC(C)n1cc(-c2ccnc(NC(=O)c3ccccc3)c2)c(-c2ccc(F)cc2)n1
5. CCOC(=O)Nc1cc(-c2cn(CC(C)C)nc2-c2ccc(F)cc2)ccn1
6. CC(C)C(=O)Nc1cc(-c2cn(CC(F)F)nc2-c2ccc(F)cc2)ccn1
7. CCC(C)C(=O)Nc1cc(-c2cn(CC)nc2-c2ccc(F)cc2)ccn1 (stereo not shown)
8. CC(C)C(=O)Nc1cc(-c2c(-c3ccc(F)cc3O)nn(C)c2OC(F)F)ccn1

1. 90
2. 94
3. 95
4. 95
5. 95
6. 95
7. 95
8. 94

Alternaria solani data for `CC(C)C(=O)Nc1cc(-c2cn(C3CC3)nc2-c2ccc(F)cc2)ccn1` ; its pest or weed control at 500 ppm: 95

====

Assay: physchem
Conditions: pH 2.3, LogP (pH 2.3)
measurement-name: chromatographic logP
Give bare numbers.

The following molecules each have a reported value; give each one's chromatographic logP.
1. FC1(F)Oc2cccc(-c3c(-c4ccncc4)cnn3C3CCCCO3)c2O1 (stereo not shown) [[X-4]]
2. Fc1ccc(-c2nn(CC3CC3)cc2Br)cc1 [[VI-18]]
3. CC(CC#N)n1cc(Br)c(-c2ccc(F)cc2)n1 (stereo not shown) [[VI-21]]
4. CC1(C)OB(c2cn(OC3CCCC3)nc2-c2ccc(F)cc2)OC1(C)C [[V-6]]
5. CCn1cc(-c2ccnc(N)c2)c(-c2ccc(F)cc2)n1 [[III-3]]

1: 1.64; 2: 3.9; 3: 3.08; 4: 5.51; 5: 0.97

Below are 8 molecules. Give each one its chromatographic logP.
1. CC(C)Cn1nc(-c2ccc(F)cc2)c(Br)c1OC(F)F [[VI-b-3]]
2. NS(=O)(=O)c1ccc(-c2c(-c3ccncc3)cnn2C2CCCCO2)cc1 (stereo not shown) [[X-23]]
3. Fc1ccc(-c2c(-c3ccncc3)cnn2C2CCCCO2)cc1 (stereo not shown) [[X-1]]
4. CC(C)(C)c1ccc(-c2c(-c3ccncc3)cnn2C2CCCCO2)cc1 (stereo not shown) [[X-9]]
5. CCn1cc(Br)c(-c2ccc(F)cc2)n1 [[VI-2]]
6. CC1(C)OB(c2cn(CC3CC3)nc2-c2ccc(F)cc2)OC1(C)C [[V-8]]
7. CC(C)Cn1cc(Br)c(-c2ccc(F)c(C#N)c2)n1 [[VI-11]]
8. Fc1ccc(-c2c(-c3ccncc3)cnn2C2CCCCO2)c(F)c1 (stereo not shown) [[X-8]]

1: 4.91; 2: 0.92; 3: 1.23; 4: 2.02; 5: 3.32; 6: 4.42; 7: 4.15; 8: 1.35

Provide reported chromatographic logP for each item, in the same order as listed.
1. COc1ccc(-c2c(-c3ccncc3)cnn2C2CCCCO2)c2ccccc12 (stereo not shown) [[X-2]]
2. c1ccc(Oc2cccc(-c3c(-c4ccncc4)cnn3C3CCCCO3)c2)cc1 (stereo not shown) [[X-16]]
3. CC(C)n1cc(-c2ccnc(N)c2)c(-c2ccc(F)cc2)n1 [[III-1]]
4. CSCCn1cc(Br)c(-c2ccc(F)cc2)n1 [[VI-15]]
5. c1ccc(Oc2ccc(-c3c(-c4ccncc4)cnn3C3CCCCO3)cc2)cc1 (stereo not shown) [[X-10]]

[1.61, 1.88, 1.22, 3.63, 1.88]

Please state, for each entry, its recorded chromatographic logP.
1. COCCn1cc(B2OC(C)(C)C(C)(C)O2)c(-c2ccc(F)cc2)n1 [[V-2]]
2. c1ccc(COc2ccccc2-c2c(-c3ccncc3)cnn2C2CCCCO2)cc1 (stereo not shown) [[X-22]]

1. 3.58
2. 1.64
